# Tested on: U-251
# assayProtocol: NCI tumour cell line growth inhibition, 48 h
Calls of active or inactive are those of the source. Rule as the data show it: active = GI50 up to about 1.1 µM and inactive = higher. Square brackets hold non-standard residues; d marks the D form. Peptide text beside a SMILES is read from it. * marks the point of attachment. ξ: configuration not given here. ξF = NC(Cc1ccccc1)C(=O)O; Cbz = O=C(OCc1ccccc1)*; Aib = CC(C)(N)C(=O)O
Please answer using one outcome listed in active, inactive

Consider the worked cases shown below.
Q) Outcome? CC(C)(NC(=O)OCc1ccccc1)C(=O)NC(Cc1ccccc1)C(=O)O (stereo unspecified) (Cbz-[Aib]-[ξF]-OH)
A) inactive

Q) Could you please tell me the result logged for NC(=O)C(=Cc1ccc(CP(=O)(O)O)cc1)C(N)=O in this assay?
A) inactive

Q) How did this test come out for O=C1c2ccsc2C(=O)c2sc(CO)cc21 ?
A) active

Others:
Q) Name the outcome recorded for Cc1cc2c(=Cc3ccc(N(C)C)cc3)c3ccccc3n2[n+]1C in the assay.
A) active

Q) Could you check what this test reported for O=C(O)CCSC(=O)Nc1ccc(/N=N/c2ccccc2)cc1 ?
A) inactive

Q) Assay result, entry NCCN1C(=O)CN=C(c2ccc(Cl)cc2)c2cc(Cl)ccc21 — outcome?
A) inactive
